// data source = the NIST ThermoML archive (doi:10.1016/j.jct.2010.06.009)

test: activity coefficient (dimensionless); of the first substance listed, at infinite dilution; xn = mol fraction of the nth substance listed; details: 323.3 K; 101 kPa; Liquid; Chromatography; x1 = 0
observable: activity coefficient
Reply: number alone, nothing else.

| compound | observed_result |
| --- | --- |
| Cc1ccccc1C [1,2-dimethylbenzene] + CCCC[n+]1ccccc1.O=S(=O)([N-]S(=O)(=O)C(F)(F)F)C(F)(F)F | 2.26 |
| CCCCCCCCC [nonane] + CCCC[n+]1ccccc1.O=S(=O)([N-]S(=O)(=O)C(F)(F)F)C(F)(F)F | 45.6 |
| Cc1ccccc1 [toluene] + CCCC[n+]1ccccc1.O=S(=O)([N-]S(=O)(=O)C(F)(F)F)C(F)(F)F | 1.83 |

(Q) Query: activity coefficient; subject: CCc1ccccc1 [ethylbenzene] + CCCC[n+]1ccccc1.O=S(=O)([N-]S(=O)(=O)C(F)(F)F)C(F)(F)F
(A) 2.77

(Q) Also, Cc1ccc(C)cc1 [1,4-dimethylbenzene] + CCCC[n+]1ccccc1.O=S(=O)([N-]S(=O)(=O)C(F)(F)F)C(F)(F)F please.
(A) 2.49

(Q) Now give it for Cc1ccccc1C [1,2-dimethylbenzene] + CC[n+]1ccccc1.O=S(=O)([N-]S(=O)(=O)C(F)(F)F)C(F)(F)F too.
(A) 2.68

(Q) Check Cc1cccc(C)c1 [1,3-dimethylbenzene] + CCCC[n+]1ccccc1.O=S(=O)([N-]S(=O)(=O)C(F)(F)F)C(F)(F)F too.
(A) 2.5

(Q) And for Cc1ccccc1 [toluene] + CCCCC[n+]1ccccc1.O=S(=O)([N-]S(=O)(=O)C(F)(F)F)C(F)(F)F ?
(A) 1.33
